Below is a list of entries, each paired with its recorded inhibition value.
# EXPERIMENTAL SYSTEM: Neuronal acetylcholine receptor; alpha4/beta2 (Rattus norvegicus) (UniProt P09483+P12390)
# EXPERIMENTAL PROTOCOL: The compound was evaluated for percentage inhibition of binding of [3H]- nicotine to Nicotinic acetylcholine receptor alpha4-beta2 in Rat Cerebral Cortical Membranes
# Assay type: protein-complex assay
# Set-up: concentration or dose not given beside the values
# ASSAY SETUP: concentration not given here
REPORTED PROPERTY: inhibition (%)

| MOLECULE | EXPERIMENTAL SYSTEM | READING |
| --- | --- | --- |
| CC(=O)O[C@@H]1CCC2NC1C[C@@H]2S(=O)(=O)c1ccccc1 (stereo not given in full) | Neuronal acetylcholine receptor; alpha4/beta2 (Rattus norvegicus) (UniProt P09483+P12390) | 10 |
| COC(=O)[C@H]1CC2NC1CC[C@@H]2OC(C)=O (stereo not given in full) | Neuronal acetylcholine receptor; alpha4/beta2 (Rattus norvegicus) (UniProt P09483+P12390) | 13 |
| CC(=O)OC1CC2CC(=O)CC1N2 (stereo not given) | Neuronal acetylcholine receptor; alpha4/beta2 (Rattus norvegicus) (UniProt P09483+P12390) | 13 |
| CC(=O)O[C@H]1CCC2NC1C[C@@H]2S(=O)(=O)c1ccccc1 (stereo not given in full) | Neuronal acetylcholine receptor; alpha4/beta2 (Rattus norvegicus) (UniProt P09483+P12390) | 16 |
| COC(=O)C1CC2NC1CCC2=O (stereo not given) | Neuronal acetylcholine receptor; alpha4/beta2 (Rattus norvegicus) (UniProt P09483+P12390) | 15 |
| CC(=O)OC1CC2CC(=O)CC1N2C (stereo not given) | Neuronal acetylcholine receptor; alpha4/beta2 (Rattus norvegicus) (UniProt P09483+P12390) | 5 |
| COC(=O)C1CC2NC1CCC21SCCS1 (stereo not given) | Neuronal acetylcholine receptor; alpha4/beta2 (Rattus norvegicus) (UniProt P09483+P12390) | 36 |
| COC(=O)[C@H]1CC2NC1CC[C@H]2OC(C)=O (stereo not given in full) | Neuronal acetylcholine receptor; alpha4/beta2 (Rattus norvegicus) (UniProt P09483+P12390) | 19 |
| COC(=O)C1C(O)CC2CCC1N2C (stereo not given) | Neuronal acetylcholine receptor; alpha4/beta2 (Rattus norvegicus) (UniProt P09483+P12390) | 11 |
| CCSC1CCC2NC1CC2C(=O)OC (stereo not given) | Neuronal acetylcholine receptor; alpha4/beta2 (Rattus norvegicus) (UniProt P09483+P12390) | 50 |

FYI, the data here is from ChEMBL document CHEMBL1131242.
